- method_notes: Stability of cannabinoid and Vitamin E components of Beverage 2 (AB Red) stored at 8° C. and 21-25° C., LCMSMS over 570 days
- protocol_conditions: 21-25° C., 8 days
Rule: Stability of Cannabinoids in AB Red of 2 µg/mL or more gives T; anything lower gives F.

{"columns": ["compound", "assigned_category"],
 "data": [
  ["CCCc1cc(O)c2c(c1)OC(C)(C)[C@@H]1CCC(C)=C[C@@H]21 [THCV, delta-9-tetrahydrocannabivarin]", "T"],
  ["CCCCCc1cc(O)c2c(c1)OC(C)(C)c1ccc(C)cc1-2", "T"],
  ["CCCCCc1cc(O)c2c(c1)OC(C)(C)[C@@H]1CCC(C)=C[C@@H]21 [D9 THC, delta-9-tetrahydrocannabinol, reference compound]", "T"],
  ["CCCCCc1cc2c(c(O)c1C(=O)O)[C@@H]1C=C(C)CC[C@H]1C(C)(C)O2 [D9 THCA, delta-9-tetrahydrocannabinolic acid]", "F"],
  ["C=C(C)[C@@H]1CCC(C)=C[C@H]1c1c(O)cc(CCCCC)c(C(=O)O)c1O", "F"],
  ["CCCCCc1cc(O)c(C/C=C(\\C)CCC=C(C)C)c(O)c1", "T"],
  ["C=C(C)[C@@H]1CCC(C)=C[C@H]1c1c(O)cc(CCC)cc1O", "F"],
  ["CCCCCc1cc(O)c2c(c1)OC1(C)CCC3C1C2C3(C)C (stereo not drawn)", "F"],
  ["CCCCCc1cc(O)c2c(c1)OC(C)(CCC=C(C)C)C=C2 (stereo not drawn)", "F"]
]}

====

- Type: physicochemical
- protocol_conditions: stored at room temperature (21-25° C.), day 9
observed_property: Stability in Powder Concentrate (content by LCMSMS) (mg/g powder)

{"columns": ["molecule", "experimental_value"],
 "data": [
  ["CCCCCc1cc(O)c2c(c1)OC(C)(C)[C@@H]1CCC(C)=C[C@@H]21 [D9 THC, delta-9-tetrahydrocannabinol, reference compound]", 2.49],
  ["CCCCCc1cc(O)c2c(c1)OC1(C)CCC3C1C2C3(C)C (stereo not shown)", 0.050],
  ["CCCc1cc(O)c2c(c1)OC(C)(C)[C@@H]1CCC(C)=C[C@@H]21 [THCV, delta-9-tetrahydrocannabivarin]", 0.693],
  ["C=C(C)[C@@H]1CCC(C)=C[C@H]1c1c(O)cc(CCCCC)cc1O [CBD, cannabidiol, reference compound]", 6.01],
  ["CCCCCc1cc(O)c2c(c1)OC(C)(CCC=C(C)C)C=C2 (stereo not shown)", 0.068],
  ["CCCCCc1cc2c(c(O)c1C(=O)O)[C@@H]1C=C(C)CC[C@H]1C(C)(C)O2 [D9 THCA, delta-9-tetrahydrocannabinolic acid]", 0.151],
  ["Cc1c(C)c2c(c(C)c1OC(=O)CCC(=O)O)CC[C@@](C)(CCC[C@H](C)CCC[C@H](C)CCCC(C)C)O2 [α-Tocopheryl succinate]", 1.89],
  ["C=C(C)[C@@H]1CCC(C)=C[C@H]1c1c(O)cc(CCCCC)c(C(=O)O)c1O", 0.410],
  ["CCCCCc1cc(O)c2c(c1)OC(C)(C)c1ccc(C)cc1-2", 0.466],
  ["C=C(C)[C@@H]1CCC(C)=C[C@H]1c1c(O)cc(CCC)cc1O", 0.049],
  ["CC(=O)Oc1c(C)c(C)c2c(c1C)CCC(C)(CCC[C@H](C)CCC[C@H](C)CCCC(C)C)O2 (stereo partly drawn) [α-Tocopheryl acetate]", 2.09],
  ["CCCCCc1cc(O)c(C/C=C(\\C)CCC=C(C)C)c(O)c1", 1.09],
  ["Cc1c(C)c2c(c(C)c1O)CC[C@@](C)(CCC[C@H](C)CCC[C@H](C)CCCC(C)C)O2", 4.75]
]}
